Tested on: SNB-19 CNS
Assay explanation: NCI tumour cell line growth inhibition, 48 h
Property label: TGI

- CC1CC(NN)=Nc2ccccc2N1 (stereo unspecified): > 100 µM
- CC(=O)CC(=O)Nc1ccccc1[N+](=O)[O-]: > 100 µM
- O=C(/C=C/c1ccc(Cl)cc1)c1ccc(Cl)c(Cl)c1: 75.5 µM
- CCN(CC)c1ccc(/C=N/NC(=O)c2ccc(S(C)(=O)=O)cc2)c(O)c1: > 100 µM
- O=C(CSc1nnc(-c2ccccn2)s1)N/N=C/c1ccc([N+](=O)[O-])cc1: 92.5 µM
- NC(N)=N/N=C\c1ccc(C2CCNCC2)cc1: > 100 µM
- Cn1cc(-c2nonc2-c2cn(C)c3ccc(F)cc23)c2ccccc21: > 100 µM
- COC(=O)c1cc(C)n(CN(Cn2nc(C(=O)OC)cc2C)c2ccccc2)n1: > 100 µM
- Cc1ccc(NC(=O)c2cc(S(=O)(=O)Nc3n[nH]c(=O)n3-c3ccccc3)c(S)cc2Cl)cc1: > 100 µM
- COc1ccc2cc(C(=O)CCC(=O)O)ccc2c1: > 100 µM
- N#CSCc1nc2ccc(Cl)cc2c(-c2ccccc2)[n+]1[O-]: > 100 µM
- COc1cccc(CC2C(=O)N=C(NC(C)=O)N2C)c1OC(C)=O (stereo unspecified): > 100 µM
- COc1ccc2[nH]c3c(C)c4ccnc(NCCCN(C)CCCNc5ccc([N+](=O)[O-])c6[nH]c7ccccc7c(=O)c56)c4c(C)c3c2c1: 1.42 µM
- COc1cccc2c(=O)c3c(n(C)c12)OC(C(C)C)C3 (stereo unspecified): > 100 µM
- C=CCNCCN1C(=O)c2ccc3c4c(ccc(c24)C1=O)C(=O)N(CCNCC=C)C3=O: 1.35 µM
- NC(Cc1ccc(O)c(O)c1)P(=O)(O)O (stereo unspecified): > 100 µM
- COc1ccc(C2SC(N)=Nc3c2c(C)nn3C(=O)c2ccccc2O)cc1 (stereo unspecified): > 10 µM
- Nc1cccc(CCN2CCN(CCCc3ccccc3)CC2)c1: > 100 µM
- CN(C)CCn1cnc2sc3ccccc3c21: > 100 µM
- O=[N+]([O-])c1ccccc1N=Nc1c(O)[nH]c2ccc(S(=O)(=O)O)cc12: > 100 µM
- COc1ccc(-c2c(C#N)c(=O)nc(SC)n2C2OCC(OC(C)=O)C(OC(C)=O)C2OC(C)=O)cc1 (stereo unspecified): > 100 µM
